target or system: LTD4 (contraction of isolated guinea pig trachea) (Cavia porcellus, UniProt Q2NNR5)
Construct: from tissue; host or cells: isolated tracheal rings of male Hartley guinea pigs
Sequence (Q2NNR5 whole entry): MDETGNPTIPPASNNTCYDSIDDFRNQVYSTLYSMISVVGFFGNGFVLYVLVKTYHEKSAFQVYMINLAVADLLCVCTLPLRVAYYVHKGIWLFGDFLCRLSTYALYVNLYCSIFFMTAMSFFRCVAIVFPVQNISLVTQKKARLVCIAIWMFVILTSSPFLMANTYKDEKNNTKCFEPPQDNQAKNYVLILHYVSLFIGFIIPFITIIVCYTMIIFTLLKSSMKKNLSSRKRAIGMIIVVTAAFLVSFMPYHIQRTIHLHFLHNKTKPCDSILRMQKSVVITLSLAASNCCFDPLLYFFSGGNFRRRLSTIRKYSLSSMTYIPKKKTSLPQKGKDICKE
assay summary: Isolated guinea pig trachea assay, LTD4 antagonist activity
Type: cell-based
cond: antagonist concentration 1 × 10^-6 M; read-out: pKB ± S.E. (converted)
Measured Kb of individual entries

| molecule | Kb / nM |
| --- | --- |
| COC(=O)CCSC(SCCC(=O)N(C)C)c1cccc(OCc2csc(-c3ccccc3)n2)c1 (stereo not shown) [Example 13] | 44.7 |
| CN(C)C(=O)CCSC(SCCC(=O)O)c1cccc(OCc2csc(-c3ccccc3)n2)c1 (stereo not shown) [Example 16] | 72.4 |
| CN(C)C(=O)CCSC(SCCC(=O)N(C)C)c1cccc(OCc2csc(-c3ccccc3)n2)c1 [Example 14] | 324 |
| O=S(=O)(Nc1cccc(OCc2ccc3ccccc3n2)c1)C(F)(F)F [Wy-48,252, reference compound] | 83.2 |

Hey, just so you know, these numbers are from patent US5103014A.
